Where these numbers come from: PubChem BioAssay AID1117264

Listing of recorded inhibition by entry.
molecular target: RNA-editing ligase 1, mitochondrial (Trypanosoma brucei brucei) (UniProt P86926); test: TbREL1 RNA ligase inhibitors, primary screen, biochemical, FRET fluorescence (AID 1117264); details: TbREL1 RNA ligation, at 9.66 µM, hits give high values;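 further: 0% = plate median of test wells and 100% = NSC42067 control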
Sequence (P86926 whole entry, looked up): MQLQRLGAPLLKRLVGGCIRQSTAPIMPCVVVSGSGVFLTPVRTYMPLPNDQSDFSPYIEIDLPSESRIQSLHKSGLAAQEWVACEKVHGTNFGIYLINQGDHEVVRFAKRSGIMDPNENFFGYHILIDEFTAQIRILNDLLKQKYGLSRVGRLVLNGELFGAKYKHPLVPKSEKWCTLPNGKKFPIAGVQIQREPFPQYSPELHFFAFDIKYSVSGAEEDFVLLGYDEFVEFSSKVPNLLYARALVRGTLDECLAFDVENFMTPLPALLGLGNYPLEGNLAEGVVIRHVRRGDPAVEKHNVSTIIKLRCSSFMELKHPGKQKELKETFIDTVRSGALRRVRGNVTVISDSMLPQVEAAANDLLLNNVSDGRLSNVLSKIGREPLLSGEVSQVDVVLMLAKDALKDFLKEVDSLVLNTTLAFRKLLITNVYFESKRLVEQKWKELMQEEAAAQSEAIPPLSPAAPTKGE
Out of some 89,000 compounds screened, about 440 (0.49%) were called active. Only a selection was taken, and actives are over-represented in it overall.
ASSAY_METRIC: inhibition (%)

- O=C(Nc1cccnc1)c1cccc(S(=O)(=O)N2CCCC2)c1: 3.63
- O=C(CSc1nnc(COc2ccccc2)n1Cc1ccco1)c1ccc2ccccc2c1: 2.5
- COC(=O)C1=C(C)N(Cc2cccc(C(F)(F)F)c2)C(=NCc2ccccc2)NC1c1ccc(Cl)cc1 (configuration not stated): 10.5
- O=C(NC1CCCCC1)C1CCCN(S(=O)(=O)c2ccc(Br)s2)C1 (configuration not stated): 1.07
- CCC(C)NCC(=O)Nc1ccc([N+](=O)[O-])cc1C(=O)Nc1ccccc1F (configuration not stated): 1.57
- Cc1ccc2c(c1)nnc1nnc(SCC(=O)O)n12: 1.61
- COc1cccc(CNC(=O)C2CCCN(c3ncnc4c3nc3n4CCCCC3)C2)c1 (configuration not stated): 0.12
- Cc1nc2ccc(C(=O)N3CCN(C(=O)C(C)(C)C)CC3)cc2n1C1CCCC1: -0.3
- Cc1ccc(C(=O)Cc2nnc(C)s2)cc1: -0.4
- O=C(NN=Cc1ccc([N+](=O)[O-])cc1)C1CC1: -3.07
- CC(C)C[C@H]1CN=C(Nc2ccccc2)N1CC1CCCCC1: 4.52
- CCOC(=O)C1C(c2ccc(O)cc2)NC(=O)NC1(O)C(F)(F)F (configuration not stated): -0.27
- CCOc1ccc(NC(=O)CCCCCN2C(=O)[C@@H]3Cc4ccccc4CN3C2=O)cc1: -0.69
- COc1ccc(NC(=O)C(Br)C(C)C)cc1 (configuration not stated): -2.35
- CNc1nc(Nc2ccc(C)c(Cl)c2)nc(N)c1[N+](=O)[O-]: 13.4
- CC(C)NC(=O)C1(C)CCCCN1Cc1cccc(C(F)(F)F)c1 (configuration not stated): -3.05
- O=C(NCc1ccccc1)C1CCN(C(=O)Cc2ccccc2)CC1: 0.8
- CCCCn1nnnc1C(c1ccccc1)N1CCN(c2ccccc2OC)CC1 (configuration not stated): 0.09
- COC(=O)C1=C(C)N(Cc2ccccc2)C(=NCCCOC(C)C)N[C@H]1c1ccccc1: 8.47
- O=C(COC(=O)/C=C/c1ccc2c(c1)OCO2)NC1CCS(=O)(=O)C1 (configuration not stated): -1.84
- O=C(NCc1ccccc1)[C@@H]1CSC2c3ccccc3C(=O)N21 (some centres not stated): 18.5
- CCc1ccc(N(CC(=O)NCc2cccnc2)S(=O)(=O)c2ccccc2)cc1: -1.98
